target: Tubulin (Homo sapiens) (UniProt P68371+Q9H4B7+P0DPH7+P68366+Q13509+Q71U36+P04350+Q3ZCM7+P07437+P68363+Q9BQE3+Q6PEY2+Q13885+Q9BVA1+Q9BUF5); experiment: Induction of tubulin (unknown origin) polymerization; assay type: protein-complex assay
ED90 for assorted compounds
Number plus unit, in that order.

INSERT INTO results (compound, experimental_endpoint, reported) VALUES
  ('CC(=O)O[C@H]1C(=O)[C@@]2(C)[C@H]([C@H](OC(=O)c3ccccc3)[C@]3(O)C[C@H](OC(=O)[C@H](O)[C@@H](NC(=O)c4ccccc4)c4ccccc4)C(C)=C1C3(C)C)[C@]1(OC(C)=O)CO[C@@H]1C[C@@H]2O [PACLITAXEL]', 'ED90', '500 nM');

Given the compound COc1ccc(O[C@@H]2/C=C\CC(O)C[C@@H]3[C@@H](C(C)C)CC=C(C)[C@@H]3C[C@@H]2OC(=O)/C=C/c2cn(C)cn2)cc1 (single isomer, unassigned) , what is its reported ED90?
500 nM

What value of ED90 has been recorded for this entry: Cn1cnc(/C=C/C(=O)O[C@H]2C/C=C\CC[C@@H]3C=C[C@H]2O3)c1
6000 nM

What value of measured ED90 is listed for O[C@H]1C/C=C\CC[C@@H]2C=C[C@H]1O2 ?
3000 nM

Look up ED90: CC1=CC[C@H](C(C)C)[C@H]2C[C@H](OC(=O)C(C)(C)C)[C@@H](O)/C=C\C[C@@H](OC(=O)/C=C/c3cn(C)cn3)C[C@@H]12
1800 nM
